Give measured IC50 for each item. Keep answers brief.
Assayed System: IL-17A/F (Homo sapiens, UniProt Q16552+Q96PD4)
Sequence (Q16552 24-155): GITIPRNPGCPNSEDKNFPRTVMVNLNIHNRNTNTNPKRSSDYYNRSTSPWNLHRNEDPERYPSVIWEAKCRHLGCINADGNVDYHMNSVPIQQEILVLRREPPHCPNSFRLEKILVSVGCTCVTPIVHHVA
Sequence (Q96PD4 31-163): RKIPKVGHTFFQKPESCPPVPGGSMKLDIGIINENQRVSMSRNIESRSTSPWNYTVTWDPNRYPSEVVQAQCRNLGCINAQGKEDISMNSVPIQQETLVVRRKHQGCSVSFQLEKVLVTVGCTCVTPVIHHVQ
Measurement Description: IL-17A/F HEK-Blue Cell Assay
Format: cell-based
Study Conditions: HEK-Blue IL-17 reporter cells, IL-17A/F stimulation, 20 hours, SEAP readout; read-out: IL17AF HEK Blue pIC50 (converted)

Consider the following illustrative entries.
Compound | IC50
CCn1nccc1C(=O)N[C@H](C(=O)Nc1ccc([C@H](C)[C@@H](NC(=O)C(C)(F)F)C(=O)N2CCN(C)[C@H](C)C2)cc1F)C(C1CC1)C1CC1 | 10 to 100 nM
CCn1nccc1C(=O)N[C@H](C(=O)Nc1ccc([C@H](C)[C@@H](NC(=O)C(C)C2CC2)C(=O)N2CCN(C)[C@H](C)C2)cc1F)C(C1CC1)C1CC1 (single isomer, unassigned) [Compound 309] | < 10 nM
CCC(=O)N[C@@H](C(=O)N1CCN(C)[C@H](C)C1)[C@@H](C)c1ccc(NC(=O)[C@@H](NC(=O)C2(F)CC2)C(C2CC2)C2CC2)c(F)c1 | 100 to 10000 nM
CCOC(C)C(=O)N[C@@H](C(=O)N1CCN(C)[C@H](C)C1)[C@@H](C)c1ccc(NC(=O)[C@@H](NC(=O)C2(F)CC2)C(C2CC2)C2CC2)c(F)c1 (single isomer, unassigned) | 100 to 10000 nM

For each of the compounds below, note its IC50.
1. CCC(=O)NC(C(=O)N1CCN(C)CC1)C(c1ccc(NC(=O)[C@@H](NC(=O)c2ccnn2CC)C(C2CC2)C2CC2)c(F)c1)C(F)(F)F (single isomer, unassigned)
2. COCC(=O)N[C@@H](C(=O)N1CCN(C)CC1)[C@@H](C)c1ccc(NC(=O)[C@@H](NC(=O)c2nonc2C)C(C2CC2)C2CC2)c(F)c1
3. CO[C@@H](C)C(=O)N[C@@H](C(=O)N1C[C@@H](C)N(C)C[C@H]1C)[C@@H](C)c1ccc(NC(=O)[C@@H](NC(=O)C2(F)CC2)C(C2CC2)C2CC2)c(F)c1

A.
1. 100 to 10000 nM
2. 100 to 10000 nM
3. 100 to 10000 nM

----------
Give measured IC50 for each item. Keep answers brief.
Assayed System: IL-17A/A (Homo sapiens, UniProt Q16552)
Sequence (Q16552 24-155): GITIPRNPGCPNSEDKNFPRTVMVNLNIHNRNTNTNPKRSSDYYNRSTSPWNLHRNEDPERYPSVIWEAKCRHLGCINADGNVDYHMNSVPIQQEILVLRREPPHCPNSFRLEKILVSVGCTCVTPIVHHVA
Measurement Description: IL-17A/A HEK-Blue Cell Assay
Format: cell-based
Study Conditions: HEK-Blue IL-17 reporter cells, IL-17A/A stimulation, 20 hours, SEAP readout; read-out: IL17 AA HEK-5 pIC50 (converted)

Consider the following illustrative entries.
Compound | Assayed System | IC50
CCC(=O)N[C@@H](C(=O)N1C[C@H]2CN(C)C[C@H]2C1)[C@@H](C)c1ccc(NC(=O)[C@@H](NC(=O)c2ccnn2CC)C(C2CC2)C2CC2)c(F)c1 | IL-17A/A (Homo sapiens, UniProt Q16552) | 100 to 10000 nM
CO[C@@H](C)C(=O)N[C@@H](C(=O)N1C[C@@H](C)N(C)C[C@H]1C)[C@@H](C)c1ccc(NC(=O)[C@@H](NC(=O)C2(F)CC2)C(C2CC2)C2CC2)c(F)c1 | IL-17A/A (Homo sapiens, UniProt Q16552) | < 10 nM
CCC(=O)N[C@@H](C(=O)N1CCN(C)C(COC)C1)[C@@H](C)c1ccc(NC(=O)[C@@H](NC(=O)c2ccnn2CC)C(C2CC2)C2CC2)c(F)c1 (single isomer, unassigned) | IL-17A/A (Homo sapiens, UniProt Q16552) | 10 to 100 nM

Proceeding to the next compound to report its IC50.
Q. Form field: reported IC50 of "CCn1nccc1C(=O)N[C@H](C(=O)Nc1ccc([C@H](C)[C@@H](NC(=O)[C@H](C)OC)C(=O)N2C[C@H]3C[C@@H](C2)N3C)cc1F)C(C1CC1)C1CC1"
A. 10 to 100 nM

The reported numbers originate from patent US20250177383A1.
